biological target: PI3K α (Homo sapiens, UniProt P42336); construct: purchased Upstate; test: PI 3-Kinase HTRF inhibition assay, PI3K α; format: biochemical; conditions: in vitro; read-out: PI3K α IC50
Sequence (P42336 whole entry): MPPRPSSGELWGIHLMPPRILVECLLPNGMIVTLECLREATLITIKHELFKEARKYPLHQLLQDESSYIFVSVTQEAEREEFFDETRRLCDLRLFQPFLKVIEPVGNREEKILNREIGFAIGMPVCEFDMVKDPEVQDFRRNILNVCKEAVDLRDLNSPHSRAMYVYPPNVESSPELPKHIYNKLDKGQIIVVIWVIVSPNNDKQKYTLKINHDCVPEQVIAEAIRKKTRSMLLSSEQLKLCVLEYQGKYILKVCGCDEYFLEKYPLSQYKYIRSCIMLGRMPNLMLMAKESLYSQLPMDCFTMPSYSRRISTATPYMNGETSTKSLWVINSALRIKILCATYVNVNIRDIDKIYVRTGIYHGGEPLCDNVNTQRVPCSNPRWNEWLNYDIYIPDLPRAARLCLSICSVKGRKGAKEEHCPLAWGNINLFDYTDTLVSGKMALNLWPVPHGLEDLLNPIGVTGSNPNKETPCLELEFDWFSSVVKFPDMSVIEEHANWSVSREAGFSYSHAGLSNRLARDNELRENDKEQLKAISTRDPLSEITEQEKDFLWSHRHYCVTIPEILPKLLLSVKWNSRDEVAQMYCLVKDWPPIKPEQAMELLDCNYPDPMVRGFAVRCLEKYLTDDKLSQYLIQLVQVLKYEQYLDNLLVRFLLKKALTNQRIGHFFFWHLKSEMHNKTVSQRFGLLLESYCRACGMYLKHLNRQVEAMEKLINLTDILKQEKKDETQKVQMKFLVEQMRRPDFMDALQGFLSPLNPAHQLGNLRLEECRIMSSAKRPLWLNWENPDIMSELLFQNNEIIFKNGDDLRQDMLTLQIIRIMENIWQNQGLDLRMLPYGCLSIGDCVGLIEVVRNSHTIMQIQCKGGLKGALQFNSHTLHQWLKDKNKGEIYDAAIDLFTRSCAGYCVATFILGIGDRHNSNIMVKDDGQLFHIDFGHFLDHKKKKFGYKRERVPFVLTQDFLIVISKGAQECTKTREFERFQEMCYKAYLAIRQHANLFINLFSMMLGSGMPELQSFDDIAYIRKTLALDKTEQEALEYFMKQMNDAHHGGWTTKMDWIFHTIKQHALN
Sequence (P27986 whole entry partner): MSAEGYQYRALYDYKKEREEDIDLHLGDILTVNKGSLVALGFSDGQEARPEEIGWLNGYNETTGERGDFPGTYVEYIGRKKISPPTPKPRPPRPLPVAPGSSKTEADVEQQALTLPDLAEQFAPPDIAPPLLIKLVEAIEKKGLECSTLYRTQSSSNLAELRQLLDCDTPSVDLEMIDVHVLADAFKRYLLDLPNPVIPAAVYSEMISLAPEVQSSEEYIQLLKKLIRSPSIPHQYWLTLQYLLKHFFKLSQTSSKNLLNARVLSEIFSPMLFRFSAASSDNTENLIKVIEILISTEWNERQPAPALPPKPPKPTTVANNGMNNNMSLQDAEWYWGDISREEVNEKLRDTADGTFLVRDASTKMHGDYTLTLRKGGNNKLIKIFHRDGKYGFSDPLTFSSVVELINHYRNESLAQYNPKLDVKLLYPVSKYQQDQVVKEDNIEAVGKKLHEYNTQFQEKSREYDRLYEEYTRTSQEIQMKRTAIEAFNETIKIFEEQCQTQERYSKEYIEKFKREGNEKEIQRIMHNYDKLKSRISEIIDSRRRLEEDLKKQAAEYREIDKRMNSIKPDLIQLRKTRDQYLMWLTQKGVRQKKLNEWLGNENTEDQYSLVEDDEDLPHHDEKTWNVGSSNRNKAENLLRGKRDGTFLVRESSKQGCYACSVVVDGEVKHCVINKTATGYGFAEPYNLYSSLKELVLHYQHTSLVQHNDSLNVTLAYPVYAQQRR
pIC50: −log10 of the molar value.
QUANTITY: pIC50

Check out these entries, answers already filled in.
# COMPOUND, ASSAY TARGET, pIC50
measured = [
    ("CCOC(=O)N1CC=C(c2cnc3ccc(-c4ccc5oc(N)nc5c4)nc3n2)CC1 [Compound 9]", "PI3K α (Homo sapiens, UniProt P42336)", "> 7.00"),
    ("C[C@@H]1CN(C2CN(c3cnc4ccc(-c5ccc6nc(N)[nH]c6c5)nc4c3)C2)CCN1C [Compound 86]", "PI3K α (Homo sapiens, UniProt P42336)", "> 7.00"),
]

API: the following record is the query input.
# pIC50 lookup, item Nc1nc2cc(-c3ccc4ncc(N5CC(N6CCN(CCO)CC6)C5)nc4n3)ccc2o1 [Compound 46]
> 7.00

====

Molecular target: PI3K δ (Homo sapiens, UniProt O00329)
Construct: purchased Upstate
Sequence (O00329 whole entry): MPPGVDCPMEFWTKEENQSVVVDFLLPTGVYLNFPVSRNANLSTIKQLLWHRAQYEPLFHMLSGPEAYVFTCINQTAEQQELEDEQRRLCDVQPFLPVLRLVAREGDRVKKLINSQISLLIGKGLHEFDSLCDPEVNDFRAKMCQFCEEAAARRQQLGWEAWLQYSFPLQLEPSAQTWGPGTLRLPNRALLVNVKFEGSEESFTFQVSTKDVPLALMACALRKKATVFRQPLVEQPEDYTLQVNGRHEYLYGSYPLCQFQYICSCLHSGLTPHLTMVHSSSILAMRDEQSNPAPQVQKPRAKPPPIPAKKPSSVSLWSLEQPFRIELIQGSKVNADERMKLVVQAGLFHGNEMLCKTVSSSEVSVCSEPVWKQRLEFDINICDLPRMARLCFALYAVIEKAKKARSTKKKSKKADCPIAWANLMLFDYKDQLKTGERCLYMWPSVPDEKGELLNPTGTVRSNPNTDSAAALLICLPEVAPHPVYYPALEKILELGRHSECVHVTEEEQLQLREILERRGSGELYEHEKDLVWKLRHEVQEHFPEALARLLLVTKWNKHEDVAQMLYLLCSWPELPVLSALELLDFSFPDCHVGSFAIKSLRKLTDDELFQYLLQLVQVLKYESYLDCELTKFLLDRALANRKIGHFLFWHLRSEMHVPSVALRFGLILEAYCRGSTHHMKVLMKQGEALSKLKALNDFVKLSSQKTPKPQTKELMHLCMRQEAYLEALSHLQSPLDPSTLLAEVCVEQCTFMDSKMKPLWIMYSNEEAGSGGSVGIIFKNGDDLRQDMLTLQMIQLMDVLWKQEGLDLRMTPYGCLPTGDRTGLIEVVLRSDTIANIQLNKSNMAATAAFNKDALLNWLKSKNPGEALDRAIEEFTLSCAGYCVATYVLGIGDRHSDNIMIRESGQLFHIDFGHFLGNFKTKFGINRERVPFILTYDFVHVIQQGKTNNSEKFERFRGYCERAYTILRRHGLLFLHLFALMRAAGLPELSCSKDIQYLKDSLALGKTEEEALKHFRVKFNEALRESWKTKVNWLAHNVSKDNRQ
Sequence (P27986 whole entry partner): as the sequence (P27986 whole entry partner) above
Test: PI 3-Kinase HTRF inhibition assay, PI3K δ
Type: biochemical
Settings: in vitro; read-out: PI3K δ IC50
Description: Commercial kits or systems for assaying PI3-K activities are available. The commercially available kits or systems can be used to screen for inhibitors and/or agonists of PI3-Ks including but not limited to PI 3-Kinase α, β, δ, and γ. An exemplary system is PI 3-Kinase (human) HTRF™ Assay from Upstate. […] The plate is sealed, incubated for 1 hour at room temperature, and then read on an appropriate plate reader. Data is analyzed and IC50s are generated using GraphPad Prism 5. […]
// reported IC50 for each item listed

Past entries and their recorded results:
# COMPOUND, IC50
records = [
    ("CN1CCN(C2CN(c3cnc4ccc(-c5ccc6oc(N)nc6c5)nc4c3)C2)CC1=O [Compound 64]", "< 1 µM"),
    ("C[C@@H]1COCCN1c1cnc2ccc(-c3ccc4oc(N)nc4c3)nc2n1 [Compound 14]", "< 10 µM"),
    ("Nc1nc2cc(-c3ccc4ncc(N5C6CCC5COC6)cc4n3)ccc2o1 [Compound 23]", "> 10 µM"),
    ("Nc1nc2cc(-c3ccc4ncc(N5CC6CCC(C5)O6)cc4n3)ccc2o1 [Compound 59]", "> 10 µM"),
    ("CCOC(=O)N1CCN(c2cnc3ccc(-c4ccc5oc(N)nc5c4)nc3n2)CC1 [Compound 6]", "< 1 µM"),
]

Please look up its IC50: C[C@H]1CN(C2CN(c3cnc4ccc(-c5ccc6nc(N)[nH]c6c5)nc4c3)C2)CCN1C [Compound 89]
> 10 µM

====

molecular target: PI3K δ (Homo sapiens, UniProt O00329); construct: purchased Upstate; assay: PI 3-Kinase HTRF inhibition assay, PI3K δ; type: biochemical; conditions: in vitro; read-out: PI3K δ IC50
QUANTITY: IC50

Some compounds with known IC50 results, for comparison:
# COMPOUND, IC50
measured = [
    ("Nc1nc2cc(-c3ccc4ncc(N5CCN(C(=O)C6(N)CC6)CC5)cc4n3)ccc2o1 [Compound 42]", "< 1 µM"),
    ("Nc1nc2cc(-c3ccc4ncc(N5CC6CCC(C5)O6)nc4n3)ccc2o1 [Compound 28]", "> 10 µM"),
    ("CN1CCN(c2ccc3ncc(-c4ccc5oc(N)nc5c4)cc3n2)CC1 [Compound 80]", "> 10 µM"),
    ("Nc1nc2cc(-c3ccc4ncc(N5CC(N6CCN(CC7CC7)CC6)C5)nc4n3)ccc2o1 [Compound 35]", "< 10 µM"),
    ("Nc1nc2cc(-c3ccc4ncc(N5CC(N6CCN(CC7CC7)CC6)C5)cc4n3)ccc2o1 [Compound 60]", "< 1 µM"),
    ("Nc1nc2cc(-c3ccc4ncc(N5CCC(O)CC5)cc4n3)ccc2o1 [Compound 62]", "< 10 µM"),
    ("CN1CCN(C2CN(c3cnc4ccc(-c5ccc6oc(N)nc6c5)nc4n3)C2)CC1 [Compound 71]", "< 1 µM"),
    ("Cc1nccn1C1CN(c2cnc3ccc(-c4ccc5oc(N)nc5c4)nc3n2)C1 [Compound 50]", "< 10 µM"),
]

Any idea what IC50 was measured for CN1CC2CN(c3cnc4ccc(-c5ccc6oc(N)nc6c5)nc4c3)CC2C1 (stereo not shown) [Compound 79] ?
< 1 µM

And for CCN1CCN(C2CN(c3cnc4ccc(-c5ccc6oc(N)nc6c5)nc4c3)C2)CC1 [Compound 75] ?
< 1 µM

Attribution: patent US9359352B2
